- assayed-system: Multidrug efflux pump subunit AcrB (Escherichia coli (strain K12)) (UniProt P31224)
- Sequence (P31224 whole entry): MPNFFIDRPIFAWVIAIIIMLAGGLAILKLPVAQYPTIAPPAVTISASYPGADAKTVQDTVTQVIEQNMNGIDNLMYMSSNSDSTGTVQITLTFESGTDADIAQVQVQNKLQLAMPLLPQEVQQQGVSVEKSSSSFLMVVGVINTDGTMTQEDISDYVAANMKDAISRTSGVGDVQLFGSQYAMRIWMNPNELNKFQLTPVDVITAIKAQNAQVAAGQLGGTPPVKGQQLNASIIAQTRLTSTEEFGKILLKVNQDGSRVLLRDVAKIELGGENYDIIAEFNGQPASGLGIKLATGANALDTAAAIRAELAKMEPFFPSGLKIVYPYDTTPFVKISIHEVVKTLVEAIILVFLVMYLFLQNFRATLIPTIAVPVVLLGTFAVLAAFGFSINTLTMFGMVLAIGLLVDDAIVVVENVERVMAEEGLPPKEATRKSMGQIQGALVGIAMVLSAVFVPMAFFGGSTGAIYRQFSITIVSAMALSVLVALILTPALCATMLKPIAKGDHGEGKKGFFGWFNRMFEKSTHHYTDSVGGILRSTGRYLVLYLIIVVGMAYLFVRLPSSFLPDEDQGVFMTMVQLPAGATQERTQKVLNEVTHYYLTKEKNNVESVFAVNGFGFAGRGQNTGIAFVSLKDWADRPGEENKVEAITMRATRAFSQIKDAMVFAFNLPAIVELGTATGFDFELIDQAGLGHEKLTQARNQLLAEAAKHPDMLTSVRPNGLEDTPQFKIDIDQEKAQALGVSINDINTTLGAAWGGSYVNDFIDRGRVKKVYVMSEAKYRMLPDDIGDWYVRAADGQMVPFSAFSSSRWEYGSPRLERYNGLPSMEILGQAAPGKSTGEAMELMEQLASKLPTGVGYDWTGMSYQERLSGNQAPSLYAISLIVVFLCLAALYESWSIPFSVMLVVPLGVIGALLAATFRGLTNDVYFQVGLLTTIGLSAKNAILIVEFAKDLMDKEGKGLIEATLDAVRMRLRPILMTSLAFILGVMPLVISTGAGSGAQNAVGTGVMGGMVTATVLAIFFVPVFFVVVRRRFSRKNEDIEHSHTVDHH
- measurement-notes: Inhibition of AcrB in wild-type drug-resistant Escherichia coli […] assessed as potentiation of erythromycin-induced antimicrobial activity by measuring erythromycin MIC at 128 ug/ml by checkerboard titration method (reference value: 64 ug/ml)
property-label: MIC

Examples with their reported MIC follow.
* COc1cccc2cc3c(cc12)C(=O)N(C)C3=O | 32 µg/mL
* COc1cccc2cc3c(cc12)C(=O)N(C(C)(C)C)C3=O | 32 µg/mL

COc1ccc(CN2C(=O)c3cc4cccc(OC)c4cc3C2=O)cc1 has a reported MIC of 32 µg/mL
